- TEST DETAILS: Inhibition of HIV1 reverse transcriptase 41L/69S-SG/210W/215Y mutant in presence of 5'-A12-(GTCA)5-3' by heteropolymeric DNA polymerase assay
ENDPOINT NAME: pIC50
Entry type: numeric. Quantity: pIC50, the -log10 of concentration in molar units.

// below: answered molecules
C[C@H](Cn1cnc2c(N)ncnc21)OCP(=O)(O)OP(=O)(O)OP(=O)(O)O	4.62
Cc1cn([C@H]2CO[C@@H](COP(=O)(O)OP(=O)(O)OP(=O)(O)O)O2)c(=O)[nH]c1=O	5.80

Please turn your attention to the following entry.
Return pIC50 for the following molecule: Cc1cn([C@H]2C[C@H](N=[N+]=[N-])[C@@H](COP(=O)(O)OP(=O)(O)OP(=O)(O)O)O2)c(=O)[nH]c1=O [ZIDOVUDINE TRIPHOSPHATE]
5.36

---

- TEST DETAILS: Inhibition of HIV1 HXB2 reverse transcriptase 41L/67N/70R/215Y/219Q mutant in presence of 5 mM ATP by heteropolymeric DNA polymerase assay
ENDPOINT NAME: IC50 (µM)
Express the result in µM but write the number alone.

Recorded IC50, per entry:
C[C@H](Cn1cnc2c(N)ncnc21)OCP(=O)(O)OP(=O)(O)OP(=O)(O)O	10.5
Cc1cn([C@H]2C[C@H](N=[N+]=[N-])[C@@H](COP(=O)(O)OP(=O)(O)OP(=O)(O)O)O2)c(=O)[nH]c1=O [ZIDOVUDINE TRIPHOSPHATE]	2.5

Please turn your attention to the following entry.
Given the compound Cc1cn([C@H]2CO[C@@H](COP(=O)(O)OP(=O)(O)OP(=O)(O)O)O2)c(=O)[nH]c1=O , write its reported IC50.
0.84

---

- TEST DETAILS: Inhibition of HIV1 reverse transcriptase wild type HXB2(a) in presence of 3.2 mM ATP by prA/odT assay
- Design: species or system Human immunodeficiency virus 1
Listed below: Ki values for each entry.
Please append the unit to your numeric answer.

Check the records and state Ki for Cc1cn([C@H]2C[C@H](N=[N+]=[N-])[C@@H](COP(=O)(O)OP(=O)(O)OP(=O)(O)O)O2)c(=O)[nH]c1=O [ZIDOVUDINE TRIPHOSPHATE]
5.4 nM

Please report the measured Ki for Cc1cn([C@H]2CO[C@@H](COP(=O)(O)OP(=O)(O)OP(=O)(O)O)O2)c(=O)[nH]c1=O
2.8 nM

---

Listing of entries alongside the reported pIC50.
- TEST DETAILS: Inhibition of HIV1 reverse transcriptase 41L/67N/70R/210W/215Y mutant in presence of 20 uM dNTP by heteropolymeric DNA polymerase assay
- Design: species or system Human immunodeficiency virus 1
Please treat pIC50 as minus the base-10 logarithm of the molar concentration.

Reference set (2 entries):
Cc1cn([C@H]2C[C@H](N=[N+]=[N-])[C@@H](COP(=O)(O)OP(=O)(O)OP(=O)(O)O)O2)c(=O)[nH]c1=O [ZIDOVUDINE TRIPHOSPHATE]	4.80
Cc1cn([C@H]2CO[C@@H](COP(=O)(O)OP(=O)(O)OP(=O)(O)O)O2)c(=O)[nH]c1=O	5.62

Now, please, on to the next compound.
Give pIC50 for the following compound: C[C@H](Cn1cnc2c(N)ncnc21)OCP(=O)(O)OP(=O)(O)OP(=O)(O)O
4.31

---

Recorded IC50 by entry
- TEST DETAILS: Inhibition of HIV1 reverse transcriptase 75I/77L/116Y/151M mutant in presence of 5 mM ATP by heteropolymeric DNA polymerase assay
- Set-up: species or system Human immunodeficiency virus 1
Kindly provide the numeric value in µM only, without the unit symbol.

Note down IC50 recorded for Nc1nc2c(ncn2[C@H]2CO[C@@H](COP(=O)(O)OP(=O)(O)OP(=O)(O)O)O2)c(=O)[nH]1
1.2

Using known records, supply IC50 for Cc1cn([C@H]2C[C@H](N=[N+]=[N-])[C@@H](COP(=O)(O)OP(=O)(O)OP(=O)(O)O)O2)c(=O)[nH]c1=O [ZIDOVUDINE TRIPHOSPHATE]
9

---

Recorded IC50 values for a group of compounds are listed next.
- TEST DETAILS: Inhibition of HIV1 reverse transcriptase 75I/77L/116Y/151M mutant by heteropolymeric DNA polymerase assay
- Parameters: species or system Human immunodeficiency virus 1

Worked examples follow.
C[C@H](Cn1cnc2c(N)ncnc21)OCP(=O)(O)OP(=O)(O)OP(=O)(O)O	8 µM
Nc1nc2c(ncn2[C@H]2CO[C@@H](COP(=O)(O)OP(=O)(O)OP(=O)(O)O)O2)c(=O)[nH]1	2.5 µM
Cc1cn([C@H]2CO[C@@H](COP(=O)(O)OP(=O)(O)OP(=O)(O)O)O2)c(=O)[nH]c1=O	2.1 µM

Give the reported IC50 for this compound. Nc1nc(=O)c2ncn([C@H]3C=C[C@@H](COP(=O)(O)OP(=O)(O)OP(=O)(O)O)C3)c2[nH]1 [CARBOVIR 5'-TRIPHOSPHATE, (-)-]
6.6 µM

Please give measured IC50 of the following entry: Cc1cn([C@H]2C[C@H](N=[N+]=[N-])[C@@H](COP(=O)(O)OP(=O)(O)OP(=O)(O)O)O2)c(=O)[nH]c1=O [ZIDOVUDINE TRIPHOSPHATE]
5.1 µM

---

- TEST DETAILS: Inhibition of HIV1 reverse transcriptase 41L/67N/70R/184V/210W/215Y mutant in presence of 5 mM ATP by heteropolymeric DNA polymerase assay
- Design: species or system Human immunodeficiency virus 1
Measured IC50, listed per entry.
// return numeric value only (unit: nM, not printed)

Here's what some known entries look like.
C[C@H](Cn1cnc2c(N)ncnc21)OCP(=O)(O)OP(=O)(O)OP(=O)(O)O	5900
Cc1cn([C@H]2CO[C@@H](COP(=O)(O)OP(=O)(O)OP(=O)(O)O)O2)c(=O)[nH]c1=O	700
Cc1cn([C@H]2C[C@H](N=[N+]=[N-])[C@@H](COP(=O)(O)OP(=O)(O)OP(=O)(O)O)O2)c(=O)[nH]c1=O [ZIDOVUDINE TRIPHOSPHATE]	900
Nc1nc(=O)c2ncn([C@H]3C=C[C@@H](COP(=O)(O)OP(=O)(O)OP(=O)(O)O)C3)c2[nH]1 [CARBOVIR 5'-TRIPHOSPHATE, (-)-]	4500

Could you now consider this next compound?
Output IC50 of Nc1nc2c(ncn2[C@H]2CO[C@@H](COP(=O)(O)OP(=O)(O)OP(=O)(O)O)O2)c(=O)[nH]1
190

---

- TEST DETAILS: Inhibition of HIV1 LAI reverse transcriptase 65R mutant by heteropolymeric DNA polymerase assay
- Set-up: species or system Human immunodeficiency virus 1
Overview of recorded pIC50 for various molecules
Please treat pIC50 as minus the base-10 logarithm of the molar concentration.

A selection of reference data follows.
Nc1nc2c(ncn2[C@H]2CO[C@@H](COP(=O)(O)OP(=O)(O)OP(=O)(O)O)O2)c(=O)[nH]1	6.21
Nc1nc(=O)c2ncn([C@H]3C=C[C@@H](COP(=O)(O)OP(=O)(O)OP(=O)(O)O)C3)c2[nH]1 [CARBOVIR 5'-TRIPHOSPHATE, (-)-]	5.30
Cc1cn([C@H]2CO[C@@H](COP(=O)(O)OP(=O)(O)OP(=O)(O)O)O2)c(=O)[nH]c1=O	6.34

# evaluate next
Please look at this molecule and report its pIC50: C[C@H](Cn1cnc2c(N)ncnc21)OCP(=O)(O)OP(=O)(O)OP(=O)(O)O
4.92

---

// reported pIC50 for each item listed
- SUBJECT OF TEST: Human immunodeficiency virus type 1 reverse transcriptase (Human immunodeficiency virus 1)
- TEST DETAILS: Inhibition of HIV1 LAI reverse transcriptase wild type LAI by heteropolymeric DNA polymerase assay
# reply with the number alone; pIC50 is -log10 of concentration in mol/L

Cc1cn([C@H]2C[C@H](N=[N+]=[N-])[C@@H](COP(=O)(O)OP(=O)(O)OP(=O)(O)O)O2)c(=O)[nH]c1=O [ZIDOVUDINE TRIPHOSPHATE]	7.10
C[C@H](Cn1cnc2c(N)ncnc21)OCP(=O)(O)OP(=O)(O)OP(=O)(O)O	6.26
Nc1nc2c(ncn2[C@H]2CO[C@@H](COP(=O)(O)OP(=O)(O)OP(=O)(O)O)O2)c(=O)[nH]1	6.74
Cc1cn([C@H]2CO[C@@H](COP(=O)(O)OP(=O)(O)OP(=O)(O)O)O2)c(=O)[nH]c1=O	6.96

Shift focus to the following entry.
Name the recorded pIC50 of the molecule listed here: Nc1nc(=O)c2ncn([C@H]3C=C[C@@H](COP(=O)(O)OP(=O)(O)OP(=O)(O)O)C3)c2[nH]1 [CARBOVIR 5'-TRIPHOSPHATE, (-)-]
6.17
